Reported values of TGI for individual entries
Test system: UACC-62 melanoma
Assay: NCI tumour cell line growth inhibition, 48 h
readout kind: TGI (µM)

{"compound": "Cc1cc2c(c(C=Nc3ccc([N+](=O)[O-])cc3)c1)OC1(C=C2)Oc2ccccc2C(=O)N1C (stereo unspecified)", "readout kind": "TGI", "qualifier sign": "=", "numeric value": 34.9}
{"compound": "O=C(O)CC(Nc1ccccc1)C(=O)O (stereo unspecified)", "readout kind": "TGI", "qualifier sign": ">", "numeric value": 100}
{"compound": "Cc1cn(C2CC(O)C(Cn3cc(Cn4ncc(=O)[nH]c4=O)nn3)O2)c(=O)[nH]c1=O (stereo unspecified)", "readout kind": "TGI", "qualifier sign": ">", "numeric value": 100}
{"compound": "COc1ccc2c(c1)CCc1c(-c3noc4c3CCc3cc(OC)ccc3-4)noc1-2", "readout kind": "TGI", "qualifier sign": ">", "numeric value": 100}
{"compound": "O=C(O)C1(C(=O)O)CC1(C(=O)O)C(=O)O", "readout kind": "TGI", "qualifier sign": ">", "numeric value": 100}
{"compound": "O=C(Nc1nccs1)c1cc2c(cc1Cl)Sc1nccn1S2(=O)=O", "readout kind": "TGI", "qualifier sign": "=", "numeric value": 27.4}
{"compound": "O=S1(=O)OC(c2ccc(O)cc2)(c2ccc(O)cc2)c2ccccc21", "readout kind": "TGI", "qualifier sign": ">", "numeric value": 100}
{"compound": "CN1CCC[C@@H]1CCO[C@](C)(c1ccccc1)c1ccc(Cl)cc1", "readout kind": "TGI", "qualifier sign": "=", "numeric value": 3.99}
{"compound": "CCCCCCCCCCCCn1c(=O)cc(NCCCC)c2cc3c(NCCCC)cc(=O)n(CCCCCCCCCCCC)c3nc21", "readout kind": "TGI", "qualifier sign": ">", "numeric value": 100}
{"compound": "CCCc1cc2cc(-n3nc(C)c4c3CC(C)(C)CC4=O)cc(NC3CCC(O)CC3)c2c(=O)[nH]1 (stereo unspecified)", "readout kind": "TGI", "qualifier sign": "=", "numeric value": 5.39}
{"compound": "COC(=O)[C@@H]1C[C@H]([Se]c2ccccc2)CN1S(=O)(=O)c1ccc(C)cc1", "readout kind": "TGI", "qualifier sign": ">", "numeric value": 100}
{"compound": "O=C(NCc1ccccc1)c1cc2cc(O)c(O)cc2cn1", "readout kind": "TGI", "qualifier sign": "=", "numeric value": 44.8}
{"compound": "CC(=O)OCc1cc(OC(C)=O)cnc1COC(C)=O", "readout kind": "TGI", "qualifier sign": ">", "numeric value": 100}
{"compound": "NS(=O)(=O)c1ccc(NNc2c3ccccc3nc3ccccc23)cc1", "readout kind": "TGI", "qualifier sign": "=", "numeric value": 17.2}
{"compound": "N[C@H]1CCN(c2c(F)cc3c(=O)c(C(=O)O)cn4c3c2Oc2cc3c(ccc5ccccc53)cc2-4)C1", "readout kind": "TGI", "qualifier sign": ">", "numeric value": 100}
{"compound": "COc1cc(/C=C2\\CN(C)C/C(=C\\c3cc(OC)c(OC)c(OC)c3)C2=O)cc(OC)c1OC", "readout kind": "TGI", "qualifier sign": "=", "numeric value": 0.383}
{"compound": "N/C(=N\\N=C\\c1cccs1)NO", "readout kind": "TGI", "qualifier sign": "=", "numeric value": 51}
{"compound": "COC(=O)C1C(C)N1C (stereo unspecified)", "readout kind": "TGI", "qualifier sign": ">", "numeric value": 100}
{"compound": "N#CC(c1ccccc1)N1CCCN(C(C#N)c2ccccc2)C1c1ccccc1O (stereo unspecified)", "readout kind": "TGI", "qualifier sign": ">", "numeric value": 100}
{"compound": "CN(C)CCn1c(=O)c2ccc3c4c(nn3CCN(C)C)c3cc(N)ccc3n(c1=O)c24", "readout kind": "TGI", "qualifier sign": "=", "numeric value": 0.281}
{"compound": "CC(=O)OCC1OC(n2c(C)c(N=Nc3ccccc3)c(C)c(C#N)c2=S)C(OC(C)=O)C(OC(C)=O)C1OC(C)=O (stereo unspecified)", "readout kind": "TGI", "qualifier sign": "=", "numeric value": 33.3}

====

// values below are reported TGI
System: K-562 leukemia
Test: NCI tumour cell line growth inhibition, 48 h
readout kind: TGI (µM)

{"compound": "CCCN1CN(C(C(=O)N[C@@H]2C(=O)N3C2SC(C)(C)C3C(=O)O)c2ccccc2)CSC1=S (stereo partly drawn)", "readout kind": "TGI", "endpoint unit": "µM", "qualifier sign": ">", "numeric value": 100}
{"compound": "CCOC(=O)/C(=C\\NCC(OCC)OCC)c1nc2ccccc2[nH]1", "readout kind": "TGI", "endpoint unit": "µM", "qualifier sign": "=", "numeric value": 81}
{"compound": "C=C1C(=O)O[C@H]2[C@H]1CC/C(COC(=O)CCCCCCCCC(=O)OC/C1=C/CC[C@@]3(C)O[C@H]3[C@H]3OC(=O)C(=C)[C@@H]3CC1)=C\\CC[C@@]1(C)O[C@@H]21", "readout kind": "TGI", "endpoint unit": "µM", "qualifier sign": "=", "numeric value": 9.7}

====

Tested on: HCT-116 colon
Assay: NCI tumour cell line growth inhibition, 48 h
readout kind: TGI (µM)

{"molecule": "CNNCc1ccc(C(=O)NC(C)C)cc1", "readout kind": "TGI", "endpoint unit": "µM", "qualifier sign": ">", "numeric value": 500}
{"molecule": "CC(=O)CCNc1ccc(-c2cc(-c3ccc(N(C)C)cc3)nc3ccc4ccccc4c23)cc1", "readout kind": "TGI", "endpoint unit": "µM", "qualifier sign": ">", "numeric value": 100}
{"molecule": "CCOC(=O)C(NC(=O)c1ccccc1)(Nc1ccc(S(=O)(=O)Nc2nc(C)cc(C)n2)cc1)C(F)(F)F (centres undefined)", "readout kind": "TGI", "endpoint unit": "µM", "qualifier sign": ">", "numeric value": 100}
{"molecule": "COC(=O)C(C(=O)C(=O)Nc1ccccc1C(C)=O)c1nc2ccc(Cl)cc2[nH]c1=O (centres undefined)", "readout kind": "TGI", "endpoint unit": "µM", "qualifier sign": ">", "numeric value": 100}
{"molecule": "Cc1c(C(=O)CC(=O)C(=O)Nc2ccc(Cl)c(Cl)c2)[n+](=O)c2ccccc2n1[O-]", "readout kind": "TGI", "endpoint unit": "µM", "qualifier sign": "=", "numeric value": 35.4}
{"molecule": "C#CCN=C(N/N=C/c1ccc([N+](=O)[O-])o1)NS(=O)(=O)c1cc(C)c(Cl)cc1SCC(N)=O", "readout kind": "TGI", "endpoint unit": "µM", "qualifier sign": "=", "numeric value": 20.3}
{"molecule": "O=S(=O)(/N=C(\\NO)Nc1ccc(Cl)cc1)c1ccc(S(=O)(=O)c2ccccc2)s1", "readout kind": "TGI", "endpoint unit": "µM", "qualifier sign": "=", "numeric value": 30.4}
{"molecule": "CCOC(=O)C1CCn2c(nc3c2c(=O)n(C)c(=O)n3C)S1 (centres undefined)", "readout kind": "TGI", "endpoint unit": "µM", "qualifier sign": ">", "numeric value": 100}
{"molecule": "C=C1C(=O)O[C@H]2[C@H]1CC/C(Cn1cc(Cn3ccc4ccccc43)nn1)=C\\CC[C@@]1(C)O[C@@H]21", "readout kind": "TGI", "endpoint unit": "µM", "qualifier sign": "=", "numeric value": 2.15}

====

System: MDA-MB-435
Assay: NCI tumour cell line growth inhibition, 48 h
Measured TGI by item
readout kind: TGI

{"compound": "COc1ccc2c(c1)CCc1c(-c3noc4c3CCc3cc(OC)ccc3-4)noc1-2", "readout kind": "TGI", "result": "> 100 µM"}
{"compound": "CC#CS(=O)(=O)c1ccccc1", "readout kind": "TGI", "result": "22.9 µM"}
{"compound": "O=C(c1cccc(OCc2ccccc2)c1OCc1ccccc1)N1CCSC1=S", "readout kind": "TGI", "result": "> 100 µM"}
{"compound": "O=C(NC1CCC(=O)N1C(=O)OCc1ccccc1)OCc1ccccc1 (centres undefined)", "readout kind": "TGI", "result": "> 100 µM"}
{"compound": "S=c1nc2[nH]ncc2c(N/N=C/c2ccccc2)[nH]1", "readout kind": "TGI", "result": "> 100 µM"}
{"compound": "CC(=O)O[C@H]1C(=O)O[C@@H]2C[C@H]3C(C)=CC(=O)[C@@H](O)[C@]3(C)[C@H]3[C@@]4(O)OC[C@]32[C@@H]1[C@@H](C)[C@H]4O", "readout kind": "TGI", "result": "0.233 µM"}
{"compound": "CC(C)OCC(O)COc1ccc2ccc(=O)oc2c1 (centres undefined)", "readout kind": "TGI", "result": "> 100 µM"}
{"compound": "CC(C)(C)[Si](C)(C)OCCCCC1CC2(S(=O)(=O)C3=CC=C=C=C3)ON1CC2S(=O)(=O)c1ccccc1 (centres undefined)", "readout kind": "TGI", "result": "> 100 µM"}
{"compound": "C[C@]12CCC(=O)C=C1CC[C@@H]1[C@@H]2CC[C@]2(C)C(=O)[C@H](n3ccnc3)C[C@@H]12", "readout kind": "TGI", "result": "> 100 µM"}

These data points were gathered from PubChem BioAssay (NCI).
